A collection of molecules and their measured pIC50
target: BRD4 protein (Homo sapiens); experiment: FRET assay, half maximal inhibitory concentration (IC50); type: binding; conditions: BRD4 protein 50 nM, Biotin-H4KAc4 peptide 12.5 nM; List of Classification
pIC50: −log10 of the molar value.

molecule | pIC50
Cc1cc(O)nc2ccc(NC(=O)c3cc(CO)ccc3N3CCCC3)cc12 | 6.30 to 6.70
Cc1cc(=O)nc2ccc(NC(=O)c3cc(CN4CCOCC4)cnc3N3CCCC3)cn12 | < 5.00
O=C1CCc2cc(NC(=O)c3cc(S(=O)(=O)N4CCOCC4)ccc3N3CCCC3)ccc2N1 | 6.00 to 6.30
Cc1cc(O)nc2ccc(N(C)C(=O)c3cc(S(=O)(=O)N(C)C)ccc3N3CCN(C)CC3)cc12 | < 5.00
Cc1cc(O)nc2ccc(NC(=O)c3cc(-c4ccoc4)cnc3N3CC4(COC4)C3)cc12 | 6.00 to 6.30
Cc1cc(O)nc2ccc(NC(=O)c3cc(S(=O)(=O)N(C)C)ccc3NCCO)cc12 | < 5.00
Cc1cc(O)nc2ccc(NC(=O)c3cc(S(=O)(=O)N4CCCCC4)ccc3N3CCOCC3)cc12 | > 6.70
Cc1cc(O)nc2ccc(NC(=O)c3cc(C(F)(F)F)ccc3N3CCCC3)cc12 | > 6.70
Cc1cc(O)nc2c(C)cc(NC(=O)c3cc(-c4ccoc4)cnc3N3CCOCC3)cc12 | > 6.70
Cc1cc(O)nc2ccc(NS(=O)(=O)c3cc([N+](=O)[O-])ccc3N3CCOCC3)cc12 | 5.00 to 6.00
Cc1cc(O)nc2ccc(NC(=O)c3cccnc3N3CCOCC3CO)cc12 (stereo not drawn) | > 6.70
Cc1cc(O)nc2ccc(NC(=O)c3cc(CC#N)ccc3N3CCCC3)cc12 | > 6.70
Cc1cc(O)nc2ccc(NC(=O)c3cc(C#N)ncc3N3CCC(F)C3)cc12 (stereo not drawn) [Compound-197] | 6.00 to 6.30
Cc1cc2nc(O)cc(C)c2cc1NC(=O)c1cc(-c2ccoc2)cnc1N1CCOCC1 | > 6.70
Cc1cc(O)nc2ccc(NC(=O)c3cc(CN4CCOCC4)ccc3N3CCCC3)cc12 | > 6.70
Cc1cc(O)nc2ccc(NC(=O)c3cc([N+](=O)[O-])ccc3N3CCCC3)cc12 | > 6.70
Cc1cc(O)nc2ccc(NC(=O)c3nc(CN(C)C)ccc3N3CCCC3)cc12 | 5.00 to 6.00
Cc1cc(O)nc2ccc(NC(=O)c3cc(C4(N5CCOCC5)CC4)ccc3N3CCCC3)cc12 | > 6.70
Cc1cc(O)nc2ccc(NC(=O)c3cc(C(N)=O)ccc3N3CCOCC3)cc12 | 6.30 to 6.70
Cc1cc(O)nc2ccc(NC(=O)c3cc(C#N)ncc3N3CCCC3)cc12 | > 6.70
Cc1cc2nc(O)cc(C)c2cc1NC(=O)c1cc(-c2nnnn2C)cnc1N1CCOCC1 | < 5.00
Cc1cc(O)nc2ccc(NC(=O)c3cc(C(C)O)ncc3N3CCCC3CN(C)C)cc12 (stereo not drawn) | > 6.70
Cc1cc(O)nc2ccc(NC(=O)c3cccnc3N3CCOCC3)cc12 | > 6.70
Cc1cc(O)nc2ccc(NC(=O)c3cc(S(=O)(=O)N4CC(N(C)C)C4)ccc3N3CCOCC3)cc12 | > 6.70
Cc1cc(O)nc2ccc(NC(=O)c3cc(-c4cnoc4)ccc3N3CCOCC3)cc12 | > 6.70
Cc1cc(O)nc2ccc(NC(=O)c3cc(COC(C)C)ccc3N3CCCC3)cc12 | > 6.70
Cc1cc(O)nc2ccc(NC(=O)c3cc(S(=O)(=O)N(C)C)ccc3N3CCOCC3)cc12 | > 6.70
Cc1cc(O)nc2ccc(NC(=O)c3cc(NCC(N)=O)ccc3N3CCOCC3)cc12 | 6.30 to 6.70
Cc1cc(O)nc2ccc(NC(=O)c3cc(S(=O)(=O)N(C)C)cnc3N3CCC(F)C3)cc12 (stereo not drawn) | > 6.70
Cc1cc(O)nc2ccc(NC(=O)c3cc(NCC(N)=O)cnc3N3CCCC3)cc12 | 6.30 to 6.70
Cc1cc(O)nc2ccc(NC(=O)c3cc(S(=O)(=O)N4CC(N)C4)ccc3N3CCOCC3)cc12 | > 6.70
Cc1cc(O)nc2ccc(NC(=O)c3cccnc3N3CCCC3CN(C)C)cc12 (stereo not drawn) [Compound-97] | > 6.70
Cc1cc2nc(O)cc(C)c2cc1NC(=O)c1cc(S(=O)(=O)N(C)C)ccc1N1CCOCC1 | > 6.70
